Reference source: the supplement of paper PMC10883282

System: KHOS-240S
Assay: relative viability vs DMSO control (72 h) (fraction); higher = more viable cells
Settings: 0.00051 µM
endpoint: relative viability
API note: the answer field is a bare number with no unit suffix.

The examples below pair each entry with its known result.
# record smiles, test target, relative viability
rows = [
    ("CC(C)NC[C@@H](C(=O)N1CCN(c2ncnc3c2[C@H](C)C[C@H]3O)CC1)c1ccc(Cl)cc1", "KHOS-240S", 1.04),
    ("O=S(=O)(c1cccc2cnccc12)N1CCCNCC1", "KHOS-240S", 0.974),
    ("CC(C)(C)c1nc(-c2cccc(NS(=O)(=O)c3c(F)cccc3F)c2F)c(-c2ccnc(N)n2)s1", "KHOS-240S", 1.06),
    ("Clc1ccc(Nc2nnc(Cc3ccncc3)c3ccccc23)cc1", "KHOS-240S", 1.06),
    ("CC(C)Oc1ccc(-c2nn([C@@H](C)c3oc4ccc(F)cc4c(=O)c3-c3cccc(F)c3)c3ncnc(N)c23)cc1F", "KHOS-240S", 1.08),
    ("CC1(COc2ccc3c(c2)ncn3-c2ccc3cccc(N4CCC(N)CC4)c3n2)COC1", "KHOS-240S", 0.957),
    ("Cn1cc(C2=C(c3cn(C4CCN(Cc5ccccn5)CC4)c4ccccc34)C(=O)NC2=O)c2ccccc21", "KHOS-240S", 1.1),
]

Proceed to the following item.
Sure, the documented relative viability for `CNC(=O)c1ccccc1Sc1ccc2c(/C=C/c3ccccn3)n[nH]c2c1` is 1.02

* * *

Tested on: SK-LMS-1
Test: relative viability vs DMSO control (72 h) (fraction); higher = more viable cells
Details: 1.111 µM
Note to self: use True only for relative viability readings below 0.8; a reading exactly at 0.8 still gets False.

Below are worked cases with known answers.
# compound, test target, label value
data = [
    ("CC(C)(C)c1nc(-c2cccc(NS(=O)(=O)c3c(F)cccc3F)c2F)c(-c2ccnc(N)n2)s1", "SK-LMS-1", "True"),
    ("COC(=O)[C@@]1(O)C[C@H]2O[C@]1(C)n1c3ccccc3c3c4c(c5c6ccccc6n2c5c31)C(=O)NC4 [K-252a]", "SK-LMS-1", "True"),
    ("CC(C)(O)CNc1nc(Nc2ccnc(C(F)(F)F)c2)nc(-c2cccc(C(F)(F)F)n2)n1", "SK-LMS-1", "False"),
    ("COc1cc(Nc2ncc(F)c(Nc3ccc4c(n3)N(COP(=O)(O)O)C(=O)C(C)(C)O4)n2)cc(OC)c1OC", "SK-LMS-1", "True"),
    ("CC[C@@H]1CN(C(=O)NCC(F)(F)F)C[C@@H]1c1cnc2cnc3[nH]ccc3n12", "SK-LMS-1", "False"),
]

Read the next record carefully.
(Q) I'd appreciate it if you could check whether `N#CC1(c2ccc(NC(=O)c3cccnc3NCc3ccncc3)cc2)CCCC1` has relative viability smaller than 0.8.
(A) False

* * *

# relative viability annotations
System: SW872
Assay: relative viability vs DMSO control (72 h) (fraction); higher = more viable cells
Settings: 0.04115 µM

# molecule, test target, endpoint, result
rows = [
    ("COCCNc1cc(NC(=O)N2CCCc3cc(CN4CCN(C)CC4=O)c(C=O)nc32)ncc1C#N [Roblitinib]", "SW872", "relative viability", 0.963),
]

relative viability for Cc1cc2cc(Oc3ccnc(Nc4cccc(CS(=O)(=O)NCCN(C)C)c4)n3)ccc2[nH]1 [Sulfatinib] is 0.996

relative viability reading for COC(=O)[C@@]1(O)C[C@H]2O[C@]1(C)n1c3ccccc3c3c4c(c5c6ccccc6n2c5c31)C(=O)NC4 [K-252a] : 0.843

Notebook: COc1cc(OC)c(/C=C/S(=O)(=O)Cc2ccc(OC)c(NCC(=O)O)c2)c(OC)c1 [Rigosertib] , relative viability read as 1.06

For reference, reported relative viability for CN1CCN(c2ccc(C(=O)Nc3n[nH]c4ccc(Cc5cc(F)cc(F)c5)cc34)c(NC3CCOCC3)c2)CC1 [Entrectinib] stands at 1.05

For CCN1C(=O)N(c2c(F)c(OC)cc(OC)c2F)Cc2cnc3[nH]c(CN4CCOCC4)cc3c21 [Pemigatinib] the molecule record lists relative viability as 0.999

So, CC1(C)CC=C(c2nc(C3CC(C)(C)OC(C)(C)C3)ccc2NC(=O)c2nc(C#N)c[nH]2)CC1 [Edicotinib] ? Its relative viability was 0.997

Input COc1cc(CCc2cc(NC(=O)c3ccc(N4CC(C)NC(C)C4)cc3)n[nH]2)cc(OC)c1 (stereo not given) [AZD-4547] . Output relative viability: 0.976

# molecule Cn1ncnc1[C@H]1c2n[nH]c(=O)c3cc(F)cc(c23)N[C@@H]1c1ccc(F)cc1 [Talazoparib] ; its relative viability = 0.971

Looking up CNC(=O)c1ccccc1Sc1ccc2c(/C=C/c3ccccn3)n[nH]c2c1 [Axitinib] , I found its relative viability recorded as 1.03

* * *

System: KHOS-NP
Test: relative viability vs DMSO control (72 h) (fraction); higher = more viable cells
Conditions: 0.00457 µM
endpoint: relative viability
Please reply with the number alone, leaving off any unit.

Take a look at these entries with their results.
# compound, measured number
rows = [
    ("CC[C@@H]1CN(C(=O)NCC(F)(F)F)C[C@@H]1c1cnc2cnc3[nH]ccc3n12 [Upadacitinib]", 1.08),
    ("Cc1ccc(Nc2nccc(N(C)c3ccc4c(C)n(C)nc4c3)n2)cc1S(N)(=O)=O [Pazopanib]", 1.02),
    ("CCN(CC)CCNC(=O)c1c(C)[nH]c(/C=C2\\C(=O)Nc3ccc(F)cc32)c1C [Sunitinib]", 1.05),
    ("CC(C)(C)c1nc(-c2cccc(NS(=O)(=O)c3c(F)cccc3F)c2F)c(-c2ccnc(N)n2)s1 [Dabrafenib]", 0.995),
    ("CC1(COc2ccc3c(c2)ncn3-c2ccc3cccc(N4CCC(N)CC4)c3n2)COC1 [Crenolanib]", 1.05),
    ("CC(C)(O)CNc1nc(Nc2ccnc(C(F)(F)F)c2)nc(-c2cccc(C(F)(F)F)n2)n1 [Enasidenib]", 1.09),
    ("C[C@]12O[C@H](C[C@]1(O)CO)n1c3ccccc3c3c4c(c5c6ccccc6n2c5c31)CNC4=O [Lestaurtinib]", 1.1),
    ("C[C@H](Nc1ncnc2nc[nH]c12)c1cc2cccc(Cl)c2c(=O)n1-c1ccccc1 [Duvelisib]", 1.1),
]

Consider COc1cc(Nc2ncc(F)c(Nc3ccc4c(n3)N(COP(=O)(O)O)C(=O)C(C)(C)O4)n2)cc(OC)c1OC [Fostamatinib] . Its measured relative viability is 1.09

Data point: Cc1cccc(-c2nn3c(c2-c2ccnc4ccc(C(N)=O)cc24)CCC3)n1 [Galunisertib] ; relative viability = 1.06

* * *

Tested on: VA-ES-BJ
Assay: relative viability vs DMSO control (72 h) (fraction); higher = more viable cells
Conditions: 0.3704 µM
# key: entry, value: relative viability
In your answer, state the number alone without any accompanying words.

Some solved cases for reference:
# record smiles, test target, measured number
measured = [
    ("Cc1cc2c(F)c(Oc3ncnn4cc(OC[C@@H](C)O)c(C)c34)ccc2[nH]1", "VA-ES-BJ", 1.03),
    ("N#CCNC(=O)c1ccc(-c2ccnc(Nc3ccc(N4CCOCC4)cc3)n2)cc1", "VA-ES-BJ", 1.03),
    ("CC(C)Oc1ccc(-c2nn([C@@H](C)c3oc4ccc(F)cc4c(=O)c3-c3cccc(F)c3)c3ncnc(N)c23)cc1F", "VA-ES-BJ", 1.05),
]

Please look at the following molecule next.
The molecule `CC#CC(=O)N1CCC[C@H]1c1nc(-c2ccc(C(=O)Nc3ccccn3)cc2)c2c(N)nccn12` , tested on VA-ES-BJ, showed relative viability of 1.05

* * *

System: RD
Test: relative viability vs DMSO control (72 h) (fraction); higher = more viable cells
Details: 10 µM
Measured relative viability by item
Number only, please.

# compound, relative viability
measured = [
    ("CNC(=O)c1ccccc1Sc1ccc2c(/C=C/c3ccccn3)n[nH]c2c1 [Axitinib]", 0.183),
    ("CC1(COc2ccc3c(c2)ncn3-c2ccc3cccc(N4CCC(N)CC4)c3n2)COC1 [Crenolanib]", 0.0201),
    ("CC[C@@H]1CN(C(=O)NCC(F)(F)F)C[C@@H]1c1cnc2cnc3[nH]ccc3n12 [Upadacitinib]", 1),
    ("CC#CC(=O)N1CCC[C@H]1c1nc(-c2ccc(C(=O)Nc3ccccn3)cc2)c2c(N)nccn12 [Acalabrutinib]", 1.07),
]

# compound Cc1ccc(Nc2nccc(N(C)c3ccc4c(C)n(C)nc4c3)n2)cc1S(N)(=O)=O [Pazopanib] ; its relative viability = 1.1

Value of relative viability reported for the compound N#CCNC(=O)c1ccc(-c2ccnc(Nc3ccc(N4CCOCC4)cc3)n2)cc1 [Momelotinib] is 0.905

Record Cn1ncnc1[C@H]1c2n[nH]c(=O)c3cc(F)cc(c23)N[C@@H]1c1ccc(F)cc1 [Talazoparib] . Reported relative viability: 0.577

// recorded relative viability for O=S(=O)(c1cccc2cnccc12)N1CCCNCC1 [Fasudil] : 1.06
